Hey, just so you know, these numbers are from ChEMBL document CHEMBL4513216.

Tested on: Plasmodium falciparum
Assay protocol: Screen against P. falciparum Asexual Blood Stage (ABS), at 5uM
Type: functional, Dd2
Condition: tested at 5 uM
In all, about 65,000 compounds went through this assay and about 2,100 (3.2%) showed an effect of 50% or more. The median lay at about -52%. Only a selection was taken, and strong results are over-represented in it overall.
Measured quantity: INHIBITION (%)
# output: bare number, implied unit %

Data request: I'd like to know its INHIBITION. The molecule in question is CCC(CN1CCCC1)n1cncc1-c1cnn(Cc2ccccc2)c1 (stereo unspecified)
Data returned: 44.8

Data request: Consider the molecule COCC(c1cccc(C(F)(F)F)c1)N(C)C(=O)c1ccncc1 (stereo unspecified) and give its measured INHIBITION.
Data returned: -196

Data request: // INHIBITION lookup, key: CC(CN1CCOCC1)n1cncc1-c1cnn(Cc2ccccc2)c1 (stereo unspecified)
Data returned: -46.1

Data request: So what's the measured INHIBITION for this one? NCCCNS(=O)(=O)Cc1ccc(Br)cc1
Data returned: -29.3

Data request: Dear colleague, I am looking for the recorded INHIBITION of the following molecule: COCC(c1cccc(C(F)(F)F)c1)N(C)C(=O)c1cnccn1 (stereo unspecified)
Data returned: 48.8

Data request: INHIBITION lookup needed for Cc1noc(C)c1CCC(=O)N1CCCN(Cc2cccs2)CC1 , thanks.
Data returned: -63
